TARGET_UNDER_TEST: HLA-A*0201 on mild-acid treated JY cells (human)
ASSAY_COMMENT: competition vs FL-reference peptide, JY cells
APPLIED_CONDITIONS: remark: other sources report otherwise
Assign pIC50 to each entry below.
The quantity pIC50 is defined as the negative base-10 logarithm of the molar concentration.

input: Data request, read-out pIC50, for DLMGYIPLV [HCVcore-132]
output: 5.30

input: Data request, read-out pIC50, for FLPSDFFPSV [hepatitis B nucleocapsid peptide …]
output: 6.40

input: Data request, read-out pIC50, for TLGIVCPI [HPV16 E7 86-93]
output: 6.15

input: Data request, read-out pIC50, for WLSLLVPFV [HBV surface 335]
output: 6.00
